This collection of values is drawn from patent US5665745A.

- measured_target: muscarinic acetylcholine receptors
- assay_details: inhibition of specific binding of ^3 H-Oxotremorine-M (^3 H-Oxo)
- applied_conditions: ^3 H-Oxotremorine 1.0 nM, rat cortex, 30 min. at 25° C.
Hi there, I'd appreciate the recorded IC50 for every entry that follows.
// unit must come after the numeric part

Task: Consider the molecule C=CCCOc1nsnc1OC1CN2CCC1CC2 (racemic) [Compound 108] and give its measured IC50.
Result: 9.1 nM

Task: Which IC50 value is on record for CCC#CCCOc1nsnc1O[C@@H]1CN2CCC[C@H]1C2 (relative stereo) [Compound 176] ?
Result: 1.3 nM

Task: Quick one: IC50 of C1CC1COc1nsnc1OC1CN2CCC1CC2 (racemic) [Compound 106] ?
Result: 9.5 nM

Task: I'd like to know its IC50. The molecule in question is CCCCSc1nsnc1O[C@@H]1CNC[C@H]1O (relative stereo) [Compound 146]
Result: 775 nM

Task: Given Cl/C=C/COc1nsnc1OC1CN2CCC1CC2 (mixture of isomers) [Compound 120] , state its recorded IC50.
Result: 11 nM

###

- measured_target: muscarinic receptors (M1 -site, pirenzepine sensitive site) (Rattus norvegicus, UniProt P08482)
- Construct: from tissue; host or cells: cerebral cortex membranes of male Wistar rats
- Sequence (P08482 whole entry): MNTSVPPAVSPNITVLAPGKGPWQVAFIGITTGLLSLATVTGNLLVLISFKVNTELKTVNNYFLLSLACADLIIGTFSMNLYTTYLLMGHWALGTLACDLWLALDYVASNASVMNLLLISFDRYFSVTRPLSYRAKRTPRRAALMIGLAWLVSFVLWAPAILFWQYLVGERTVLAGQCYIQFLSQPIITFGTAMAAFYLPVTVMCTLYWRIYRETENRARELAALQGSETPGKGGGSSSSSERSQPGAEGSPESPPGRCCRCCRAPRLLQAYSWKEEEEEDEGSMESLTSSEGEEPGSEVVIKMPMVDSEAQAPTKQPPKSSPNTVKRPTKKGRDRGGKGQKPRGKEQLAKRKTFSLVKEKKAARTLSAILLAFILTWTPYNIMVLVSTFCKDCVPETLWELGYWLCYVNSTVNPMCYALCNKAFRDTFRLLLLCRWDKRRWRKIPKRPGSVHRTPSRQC
- assay_details: inhibition of ^3 HPRZ (pirenzepine, [N-methyl-^3 H]) binding to rat cerebral cortex membranes
- Design: species or system rat (male Wistar
Exercise: for every item that follows, state its recorded pIC50.
Notebook: values listed as pIC50 are -log10 of the concentration (mol/L).

Task: Fill blank: measured pIC50 of the compound CCCCSc1nsnc1OC1CN2CCC1CC2 (racemic) [Compound 14] is ____.
Result: 8.72

Task: Quick check: pIC50 of c1ccc(CCCCSc2nsnc2OC2CN3CCC2CC3)cc1 (racemic) [Compound 148] ?
Result: 7.60

Task: Looking for the measured pIC50 of CCCCOc1nsnc1OC1CC2CCC(C1)N2C (stereo not shown) [Compound 45] , can you help?
Result: 8.34

Task: Query: pIC50; subject: Clc1nsnc1OC1CN2CCC1CC2 (racemic) [Compound 12]
Result: 7.07

###

- measured_target: muscarinic receptors (M1 -site, pirenzepine sensitive site) (Rattus norvegicus)
- Construct: from tissue; host or cells: cerebral cortex membranes of male Wistar rats
- assay_details: inhibition of ^3 HPRZ (pirenzepine, [N-methyl-^3 H]) binding to rat cerebral cortex membranes
- Parameters: species or system rat (male Wistar
- applied_conditions: ^3 HPRZ 1.0 nM, rat cortex, 60 min. at 20° C.; read-out: ^3 HPRZ IC50 (head from b208 on: Pir IC-50)
- Procedure: Furthermore the pharmacological properties of the compounds of the invention can also be illustrated by determining their capability to inhibit ^3 HPRZ (pirenzepine, [N-methyl-^3 H]) binding to rat cerebral cortex membranes. […] The final pellet is homogenized in 20 mM Hepes pH: 7.4 (100 mL per g of original tissue) and used for binding assay. […] Non-specific binding is determined in triplicate using atropine (1 ,μg/mL, final conc.) as the test substance. […]
For each of the molecules below, state its pIC50.
pIC50 is defined as minus the log10 of a concentration measured in mol/L.

Task: Field: pIC50 (muscarinic receptors (M1 -site, pirenzepine sensitive site) (Rattus norvegicus)). Entry: CCCCOc1nsnc1SCCN(C)C
Result: 6.66

Task: Form field: pIC50 recorded for c1ccc2cc(CCOc3nsnc3O[C@@H]3CN4CCC[C@H]3C4)ccc2c1 (relative stereo) with muscarinic receptors (M1 -site, pirenzepine sensitive site) (Rattus norvegicus) (enter value)
Result: 7.21

Task: Report pIC50 for c1ccc(CCCSc2nsnc2O[C@H]2CN3CCC[C@@H]2C3)cc1 (relative stereo) tested on muscarinic receptors (M1 -site, pirenzepine sensitive site) (Rattus norvegicus).
Result: 9.26

Task: Value wanted: pIC50 (muscarinic receptors (M1 -site, pirenzepine sensitive site) (Rattus norvegicus)) of entry FC(F)(F)CCCOc1nsnc1O[C@@H]1CN2CCC[C@H]1C2 (relative stereo)
Result: 8.70

Task: Request body: readout pIC50, system muscarinic receptors (M1 -site, pirenzepine sensitive site) (Rattus norvegicus), query Brc1ccc(OCCOc2nsnc2OC2CN3CCC2CC3)cc1 (racemic) . Return the value.
Result: 6.96

Task: Hi! What's the reported pIC50 for C1=CC(Oc2nsnc2OC2CN3CCCC2C3)CCC1 (mixture of isomers) on muscarinic receptors (M1 -site, pirenzepine sensitive site) (Rattus norvegicus)?
Result: 7.92

Task: For muscarinic receptors (M1 -site, pirenzepine sensitive site) (Rattus norvegicus), provide pIC50 of CC(C)(CCOc1nsnc1O[C@@H]1CN2CCC[C@H]1C2)c1ccccc1 (relative stereo) please.
Result: 6.82

Task: What pIC50 appears in the records for this molecule with muscarinic receptors (M1 -site, pirenzepine sensitive site) (Rattus norvegicus)? c1csc(CCCOc2nsnc2O[C@@H]2CN3CCC[C@H]2C3)c1 (relative stereo)
Result: 8.30

Task: Provide value of pIC50 for this record tested with muscarinic receptors (M1 -site, pirenzepine sensitive site) (Rattus norvegicus): FC(F)(F)c1ccc(OC(CCSc2nsnc2OC2CN3CCC2CC3)c2ccccc2)cc1 (racemic)
Result: 6.69

Task: Give recorded pIC50 with muscarinic receptors (M1 -site, pirenzepine sensitive site) (Rattus norvegicus) for the following molecule: CCCCOc1nsnc1OC1CCNC1 (racemic)
Result: 6.43

Task: What is its pIC50 for muscarinic receptors (M1 -site, pirenzepine sensitive site) (Rattus norvegicus)? Entry: CCCCOc1nsnc1OC[C@@H]1CCCN1C
Result: 7.92

Task: Quick check: pIC50 on muscarinic receptors (M1 -site, pirenzepine sensitive site) (Rattus norvegicus), item FC(F)(F)CCCOc1nsnc1OC1CC2CCC1NC2 (mixture of isomers) [Compound 162] ?
Result: 6.89

Task: Notebook entry, muscarinic receptors (M1 -site, pirenzepine sensitive site) (Rattus norvegicus) assay: pIC50 of FCCCOc1nsnc1OC1CN2CCC1CC2 (racemic) = ?
Result: 6.97

Task: Value wanted: pIC50 (muscarinic receptors (M1 -site, pirenzepine sensitive site) (Rattus norvegicus)) of entry Fc1ccc(OCCOc2nsnc2OC2CN3CCC2CC3)cc1 (racemic)
Result: 6.84

Task: Form entry - test system: muscarinic receptors (M1 -site, pirenzepine sensitive site) (Rattus norvegicus); read-out: pIC50; molecule: FC(F)(F)c1cccc(CCOc2nsnc2O[C@@H]2CN3CCC[C@H]2C3)c1 (relative stereo)
Result: 7.37
